assay: In vitro metabolic stability in cryopreserved hepatocytes (monkey); assay type: in vitro ADME; details: Cynomolgus Monkey hepatocytes, 0.5×10^6 cells/mL, 37° C.
recordedEndpoint: half-life at 1 µM (h)

>  <smilesString>
Cn1cc(C(=O)O)c2ccc(N3CCC(OCc4c(-c5c(Cl)cccc5Cl)noc4C4CC4)CC3)cc21

>  <unit>
h

>  <valueMeasured>
1.06

$$$$

----------
assay: In vitro metabolic stability in cryopreserved hepatocytes (rat); type: in vitro ADME; conditions: Sprague-Dawley Rat hepatocytes, 0.5×10^6 cells/mL, 37° C.

>  <smilesString>
Cn1cc(C(=O)O)c2ccc(N3CCC(OCc4c(-c5c(Cl)cccc5Cl)noc4C4CC4)CC3)cc21

>  <half-life at 1 µM, h>
2.18

$$$$

This collection of values is drawn from patent US20220387414A1.
